Each entry below lists one item and its recorded Kd value.
assay_target: T1, human BCMA on NCI-H929, OPM2 and Raji cells (human, UniProt Q02223 1-184)
T1 construct: endogenous BCMA of human cell lines; also called TNFRSF17; CD269
T1 chain: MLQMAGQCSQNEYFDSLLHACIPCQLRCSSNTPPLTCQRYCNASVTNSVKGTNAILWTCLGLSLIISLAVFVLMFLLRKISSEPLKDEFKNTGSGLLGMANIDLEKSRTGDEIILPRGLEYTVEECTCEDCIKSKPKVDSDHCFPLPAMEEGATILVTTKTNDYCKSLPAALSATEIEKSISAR
test_details: flow cytometry, Raji cells

binder: AB213 (antibody, human IgG1, kappa, V domains shown, IgG1 kappa) VH: QVQLVQSGAEVKKPGSSVKVSCKASGGTFTNYWIHWVRQAPGQGLEWMGGTYRSHSTTYYNQKFKSRVTITADKSTSTAYMELSSLRSEDTAVYYCARGAVYHGYDVIDNWGQGTLVTVSS VL: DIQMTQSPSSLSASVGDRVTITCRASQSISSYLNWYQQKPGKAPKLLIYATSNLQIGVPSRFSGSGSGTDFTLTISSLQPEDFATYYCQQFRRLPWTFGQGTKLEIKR
Kd / nM: 8.83
--
binder: AB216 (antibody, human IgG1, kappa, V domains shown, IgG1 kappa) VH: QVQLVQSGAEVKKPGSSVKVSCKASGGTFSNYWIHWVRQAPGQGLEWMGATYRIQSDTYYNQKYKSRVTITADKSTSTAYMELSSLRSEDTAVYYCARGAVYHGYDVIDNWGQGTLVTVSS VL: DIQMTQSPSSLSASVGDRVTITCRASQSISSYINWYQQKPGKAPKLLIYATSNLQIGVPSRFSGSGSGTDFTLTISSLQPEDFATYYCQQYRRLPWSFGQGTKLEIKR
Kd / nM: 6.43
--
binder: AB200 (antibody, human IgG1, kappa, V domains shown, IgG1 kappa) VH: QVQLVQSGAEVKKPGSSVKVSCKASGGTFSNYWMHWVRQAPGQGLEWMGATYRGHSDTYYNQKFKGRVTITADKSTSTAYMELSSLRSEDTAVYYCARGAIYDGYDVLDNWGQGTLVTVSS VL: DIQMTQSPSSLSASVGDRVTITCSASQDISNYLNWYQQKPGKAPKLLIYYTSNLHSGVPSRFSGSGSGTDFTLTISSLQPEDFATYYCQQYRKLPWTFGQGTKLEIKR
Kd / nM: 14
--
binder: AB218 (antibody, human IgG1, kappa, V domains shown, IgG1 kappa) VH: QVQLVQSGAEVKKPGSSVKVSCKASGGTFSNYWIHWVRQAPGQGLEWMGATYRSQSTTYYNQKFKSRVTITADKSTSTAYMELSSLRSEDTAVYYCARGAVYHGYDVIDNWGQGTLVTVSS VL: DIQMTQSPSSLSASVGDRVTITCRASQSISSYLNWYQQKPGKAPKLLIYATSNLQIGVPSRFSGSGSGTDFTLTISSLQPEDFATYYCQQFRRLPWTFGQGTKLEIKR
Kd / nM: 2.15
--
binder: AB217 (antibody, human IgG1, kappa, V domains shown, IgG1 kappa) VH: QVQLVQSGAEVKKPGSSVKVSCKASGGTFTNYWIHWVRQAPGQGLEWMGATYRSHSDTYYAQKYKSRVTITADKSTSTAYMELSSLRSEDTAVYYCARGAVYHGYDVIDNWGQGTLVTVSS VL: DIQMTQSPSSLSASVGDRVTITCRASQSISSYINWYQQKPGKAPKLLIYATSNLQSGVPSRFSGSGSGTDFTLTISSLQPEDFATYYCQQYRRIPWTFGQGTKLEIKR
Kd / nM: 7.31
